tested on: Escherichia coli; assay: Antimicrobial activity against Escherichia coli; format: functional

compound | MIC
Cc1ccc2c(c1)cc(C1CC(c3cccs3)=NN1C(N)=S)c1nnnn12 (centres undefined) | 3.12 to 100 µg/mL
O=C(N[C@H](CO)[C@H](O)c1ccc([N+](=O)[O-])cc1)C(Cl)Cl | 30 µg/mL
COc1ccc(C(=O)/C=C/c2cc3ccc(C)cc3n3nnnc23)cc1 | 6.25 to 100 µg/mL
CN[C@@H]1[C@H](O[C@H]2[C@H](O[C@H]3[C@H](O)[C@@H](O)[C@H](N=C(N)N)[C@@H](O)[C@@H]3N=C(N)N)O[C@@H](C)[C@]2(O)C=O)O[C@@H](CO)[C@H](O)[C@H]1O | 200 to 400 µg/mL

Entry source: ChEMBL document CHEMBL4342421
